The measurements presented in this section are drawn from the RNAGym collection of RNA variant scans (doi:10.7554/elife.90254).

B1: OR4K15 (parent)
chain: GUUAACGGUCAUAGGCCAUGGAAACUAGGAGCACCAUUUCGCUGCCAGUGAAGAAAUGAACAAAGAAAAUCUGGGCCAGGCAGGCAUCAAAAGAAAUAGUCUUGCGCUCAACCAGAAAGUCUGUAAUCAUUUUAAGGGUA

Variants of: B1
protocol.description: self-cleavage, relative activity (ratio to wild type); higher = more cleavage; in vitro, sequencing; the parent is a self-cleaving ribozyme
Outcome label depends on self-cleavage relative to 1: at/above gives rule met, below gives rule not met.

stdin: Is it the case that A24U A82G has self-cleavage reaching or exceeding 1?
stdout: rule not met

stdin: Is it the case that A52U A91G has self-cleavage reaching or exceeding 1?
stdout: rule met

stdin: Is it the case that A64C A69U has self-cleavage reaching or exceeding 1?
stdout: rule met

stdin: Is it the case that U3C A68C has self-cleavage reaching or exceeding 1?
stdout: rule met

stdin: Is it the case that U39C A89C has self-cleavage reaching or exceeding 1?
stdout: rule met

stdin: Is it the case that G73U A86G has self-cleavage reaching or exceeding 1?
stdout: rule not met

stdin: Is it the case that A24G A140U has self-cleavage reaching or exceeding 1?
stdout: rule not met

stdin: Is it the case that U43A A135U has self-cleavage reaching or exceeding 1?
stdout: rule met

stdin: Is it the case that G14U U37C has self-cleavage reaching or exceeding 1?
stdout: rule met

stdin: Is it the case that C85U A96G has self-cleavage reaching or exceeding 1?
stdout: rule met

stdin: Is it the case that A23G A110U has self-cleavage reaching or exceeding 1?
stdout: rule met

stdin: Is it the case that A18C A60G has self-cleavage reaching or exceeding 1?
stdout: rule met

stdin: Is it the case that U108C U130A has self-cleavage reaching or exceeding 1?
stdout: rule not met

stdin: Is it the case that A116U has self-cleavage reaching or exceeding 1?
stdout: rule not met

stdin: Is it the case that A52C A90G has self-cleavage reaching or exceeding 1?
stdout: rule not met

stdin: Is it the case that U12C A114U has self-cleavage reaching or exceeding 1?
stdout: rule not met

stdin: Is it the case that A68C C88G has self-cleavage reaching or exceeding 1?
stdout: rule met

stdin: Is it the case that A78G A98G has self-cleavage reaching or exceeding 1?
stdout: rule not met

stdin: Is it the case that U19A G53A has self-cleavage reaching or exceeding 1?
stdout: rule met

stdin: Is it the case that U122C A134U has self-cleavage reaching or exceeding 1?
stdout: rule met

stdin: Is it the case that U97C U127A has self-cleavage reaching or exceeding 1?
stdout: rule not met

stdin: Is it the case that A30U C77U has self-cleavage reaching or exceeding 1?
stdout: rule met

stdin: Is it the case that A55G A114G has self-cleavage reaching or exceeding 1?
stdout: rule not met

stdin: Is it the case that A11U U108G has self-cleavage reaching or exceeding 1?
stdout: rule not met

stdin: Is it the case that A60U A66G has self-cleavage reaching or exceeding 1?
stdout: rule met

stdin: Is it the case that A78G A96U has self-cleavage reaching or exceeding 1?
stdout: rule not met

stdin: Is it the case that A30G C34A has self-cleavage reaching or exceeding 1?
stdout: rule not met

stdin: Is it the case that C17U A91G has self-cleavage reaching or exceeding 1?
stdout: rule not met

stdin: Is it the case that A63G U120C has self-cleavage reaching or exceeding 1?
stdout: rule met

stdin: Is it the case that A54G A94C has self-cleavage reaching or exceeding 1?
stdout: rule met

stdin: Is it the case that U43C G79U has self-cleavage reaching or exceeding 1?
stdout: rule not met

stdin: Is it the case that A62G C88G has self-cleavage reaching or exceeding 1?
stdout: rule met

stdin: Is it the case that G29A A78G has self-cleavage reaching or exceeding 1?
stdout: rule not met

stdin: Is it the case that U9C C40A has self-cleavage reaching or exceeding 1?
stdout: rule met

stdin: Is it the case that G41A A60G has self-cleavage reaching or exceeding 1?
stdout: rule met

stdin: Is it the case that U3C A134U has self-cleavage reaching or exceeding 1?
stdout: rule not met

stdin: Is it the case that A66U U100C has self-cleavage reaching or exceeding 1?
stdout: rule met

stdin: Is it the case that U39A A66U has self-cleavage reaching or exceeding 1?
stdout: rule met

stdin: Is it the case that U39C C121U has self-cleavage reaching or exceeding 1?
stdout: rule met

stdin: Is it the case that A13U A56G has self-cleavage reaching or exceeding 1?
stdout: rule met
